test: Inhibition of NF-kappaB in HUVECtert assessed as reduction in TNFalpha-induced E-selectin expression level pretreated for 30 mins followed by TNFalpha stimulation measured after 5 hrs by flow cytometry; parameters: species or system Homo sapiens
Measure: pIC50
Give bare numbers, as −log10 of the molar value.

Given item "CC1=CC(=O)[C@@H](O)[C@@]2(C)[C@H]1CC(=O)[C@@]1(C)[C@H]3C(=O)O[C@H]([C@@H]3C)[C@H](O)[C@@H]12" , the value recorded as its pIC50 is 6.25
